Could you please report measured growth for the items listed next?
# System: UO-31 renal
# assay notes: NCI-60 one-dose screen, 48 h (100 = growth as untreated, 0 = no growth, -100 = all killed)
# measurement parameters: 10 µM unless noted
The panel holds about 83,000 compounds, 20% with a hit somewhere; the sample as a whole holds those more often.
Answers are plain numbers, in %.

INSERT INTO assay_data (molecule, study_system, quantitative_result) VALUES
  ('CC(C(C(=O)N1CCCCC1)N1CCCCC1)N1CCCCC1 (stereo not given)', 'UO-31 renal', 94.9),
  ('COc1cc2c(cc1OC)-c1c(oc3c4c(ccc3c1=O)OC(C)(C)C=C4)CO2', 'UO-31 renal', 66.9),
  ('CCN(CC)CCC(C(=O)O)(c1ccccc1)c1ccccc1', 'UO-31 renal', 89.1),
  ('c1coc(CSc2ncnc3nc[nH]c23)c1', 'UO-31 renal', 86.5),
  ('COc1ccccc1S(=O)(=O)Nc1ccc2c3c(cc(-c4cnn(C)c4)nc13)C(=O)N2C', 'UO-31 renal', 23.7);

For the 4 molecules below, give their growth values.
1. CCCCOc1nc2ccc(Cl)cc2cc1/C=C/C(=O)/C=C/c1ccc(Cl)cc1
2. CCN(CC)C(=O)C1CCN(C(=O)c2ccccc2)CC1
3. CS(=O)(=O)Nc1cccc(-c2ccc3ncnc(Nc4cncc(Cl)c4)c3c2)c1
4. CC(C)(c1ccc(OCC(O)CNCc2ccco2)cc1)c1ccc(OCC(O)CNCc2ccco2)cc1 (stereo not given)

Key:
66.9
89.2
30.3
66.3

* * *

# Tested on: HOP-62 NSCLC
# assay notes: NCI-60 one-dose screen, 48 h (100 = growth as untreated, 0 = no growth, -100 = all killed)
# measurement parameters: 10 µM unless noted
This is part of a sample that, as a whole, favours compounds with a hit. Of some 83,000 tested, about 20% had one in any assay.
value type: growth (%)
Numbers only, in %.

See these solved cases before continuing.
INSERT INTO assay_data (smiles_structure, quantitative_result) VALUES
  ('CN1CCN(CC(=O)N(C)c2ccc(N=C(c3ccccc3)c3c(O)[nH]c4ccc(C#N)cc34)cc2)CC1', 39.7),
  ('CS(=O)(=O)Nc1cccc(-c2ccc3ncnc(Nc4ccc(F)c(Cl)c4)c3c2)c1', 39.8);

Exercise: Tell me its growth given COc1ccc(CNc2nc3ccccc3c3c(=O)c4ccccc4sc23)cc1OC as the entry.
Key: 79.8

* * *

# Tested on: EKVX NSCLC
# assay notes: NCI-60 one-dose screen, 48 h
# measurement parameters: 10 µM unless noted
Compounds without any hit were thinned out: in the full panel of roughly 83,000, 20% have a hit. Activity calls are given as the source filed them. How the source made its calls: active means growth percent below 10; inactive means the rest.
Hello, when you answer, please use one of the following outcomes: active, inactive

INSERT INTO measurements (compound, label_value) VALUES
  ('O=C(Nc1ccc(-n2ccc3c(NC(=O)c4ccccc4)ncnc32)cc1)c1ccc(Cl)c(C(F)(F)F)c1', 'inactive');

Exercise: # outcome recorded in this test, key = Cc1cc(Nc2ccc(Cl)c(Cl)c2)nc(N)n1
Key: inactive

Exercise: Record lookup: outcome of this test for Cc1cccc[n+]1CCC[n+]1ccccc1C ?
Key: inactive

* * *

# Test system: KM12 colon
# assay notes: NCI-60 one-dose screen, 48 h (100 = growth as untreated, 0 = no growth, -100 = all killed)
# measurement parameters: 10 µM unless noted
# Method: Growth inhibition of the KM12 human tumor cell line is measured as a screen for anti-cancer activity. Cells are grown in 96 well plates and exposed to the test compound for 48 hours. Compounds are tested at a single concentration, which is 10^-5 M for most compounds. The reported endpoint is percent growth (GI% or GIPRCNT), where numbers from 0 - 100% represent growth inhibition, and numbers from -100% - 0 represent cell death. For example, a value of 40 represents 60% growth inhibition. […]
Compounds without any hit were thinned out: in the full panel of roughly 83,000, 20% have a hit.
Please go through the items and note down their growth.
One number for each entry, in %.

INSERT INTO results (compound, unit_info, quantitative_result) VALUES
  ('O=C(O)c1ccc(-n2cc(/C=N/Nc3ccccc3F)c(-c3ccc(O)cc3)n2)cc1', '%', 57.9),
  ('O=C(NCCNc1nccc(-c2c(-c3cccc(O)c3)nc3sccn23)n1)Nc1cc(C(F)(F)F)cc(C(F)(F)F)c1', '%', 43.1),
  ('CCC1S/C(=N\N=C(/C)c2cc3ccccc3o2)N(c2ccccc2)C1=O (centres undefined)', '%', 114),
  ('Cc1cn(C2CC(F)C(CO)O2)c(=O)[nH]c1=O (centres undefined)', '%', 99.1),
  ('COc1ccc(C2CC(c3cc(Cl)c(C)cc3OC)=NN2c2ccc(S(N)(=O)=O)cc2)cc1OC (centres undefined)', '%', 91.8);

Each compound below has a reported value. Please supply its growth.
1. CN(C)c1ccc(/C=N/N=C(N)N)cc1
2. COc1cc(/C=C2/Oc3cc4occc4c(OC)c3C2=O)ccc1OCC(=O)Nc1ccncc1

Key:
1: 42.6; 2: 97.1
